# solubility per entry
assay: Aqueous solubility by UV spectrophotometry (500 μM solutions in aqueous media from DMSO stock); format: physicochemical; settings: kinetic from dmso stock; aqueous media, 500 μM solution prepared from DMSO stock, UV OD at λmax
metric_name: solubility (µM)

INSERT INTO assay_data (compound, sign_qualifier, measured_number) VALUES
  ('CC(C)(C)C(=O)OCOc1cc(-c2oc3cc(OCc4ccccc4)cc(O)c3c(=O)c2OCc2ccccc2)ccc1OCc1ccccc1 [Compound No. 1]', '=', 1.48),
  ('O=C(O)CNC(=O)Oc1cc(-c2oc3cc(O)cc(O)c3c(=O)c2O)ccc1O [QC-12 (IV), reference compound]', '>', 200),
  ('CC(=O)OCOc1cc(-c2oc3cc(OCc4ccccc4)cc(O)c3c(=O)c2OCc2ccccc2)ccc1OCc1ccccc1 [Compound No. 2]', '=', 0.591),
  ('O=c1c(O)c(-c2ccc(O)c(O)c2)oc2cc(O)cc(O)c12 [Quercetin (II), reference compound]', '=', 4.02),
  ('CC(=O)OCOc1cc(-c2oc3cc(O)cc(O)c3c(=O)c2O)ccc1O [Compound No. 8]', '=', 16.5),
  ('CC(C)(C)C(=O)OCOc1cc(-c2oc3cc(O)cc(O)c3c(=O)c2O)ccc1O [Compound No. 7]', '=', 30.6),
  ('CCCC(=O)OCOc1cc(-c2oc3cc(OCc4ccccc4)cc(O)c3c(=O)c2OCc2ccccc2)ccc1OCc1ccccc1 [Compound No. 13]', '<', 3.13),
  ('CCCC(=O)OCOc1cc(-c2oc3cc(O)cc(O)c3c(=O)c2O)ccc1O [Compound No. 14]', '=', 199);

###

System: SKOV3 (Ovary) cancer cells
Test: Colorimetric MTT conversion assay, SKOV3
Assay type: cell-based
Conditions: Homo sapiens, SK-OV-3, 72 h exposure, 10 μM to 100 μM
Procedure: The anticancer potential of the novel Quercetin derivatives of formula (I) were evaluated and subsequently compared with Quercetin (II). The anticancer potential was determined by the colorimetric MTT conversion assay of Mossman. […] The assay was terminated by the addition of 20 μl, of MTT solution (5 mg/ml) in each well and percentage cytotoxicity was calculated as given below. The IC50 values were determined by nonlinear regression using Prism software v 4.01. […]
IC50 for assorted molecules
metric_name: IC50

INSERT INTO measurements (molecule, result) VALUES
  ('O=c1c(O)c(-c2ccc(O)c(O)c2)oc2cc(O)cc(O)c12 [Quercetin (II), reference compound]', '88.4 µM'),
  ('CCCC(=O)OCOc1cc(-c2oc3cc(OCc4ccccc4)cc(O)c3c(=O)c2OCc2ccccc2)ccc1OCc1ccccc1', '> 100 µM'),
  ('CCCC(=O)OCOc1cc(-c2oc3cc(O)cc(O)c3c(=O)c2O)ccc1O', '94.6 µM'),
  ('CC(=O)OCOc1cc(-c2oc3cc(OCc4ccccc4)cc(O)c3c(=O)c2OCc2ccccc2)ccc1OCc1ccccc1', '> 100 µM'),
  ('CC(=O)OCOc1cc(-c2oc3cc(O)cc(O)c3c(=O)c2O)ccc1O', '> 100 µM'),
  ('CC(C)(C)C(=O)OCOc1cc(-c2oc3cc(O)cc(O)c3c(=O)c2O)ccc1O', '> 100 µM'),
  ('CC(C)(C)C(=O)OCOc1cc(-c2oc3cc(OCc4ccccc4)cc(O)c3c(=O)c2OCc2ccccc2)ccc1OCc1ccccc1', '> 100 µM');

###

# IC50 listing for each entry below
tested on: A 549 (Lung) cancer cells; assay: Colorimetric MTT conversion assay, A 549; format: cell-based; settings: Homo sapiens, A549, 72 h exposure, 10 μM to 100 μM
metric_name: IC50 (µM)

INSERT INTO results (compound, sign_qualifier, measured_number) VALUES
  ('O=c1c(O)c(-c2ccc(O)c(O)c2)oc2cc(O)cc(O)c12 [Quercetin (II), reference compound]', '=', 83.7),
  ('CCCC(=O)OCOc1cc(-c2oc3cc(OCc4ccccc4)cc(O)c3c(=O)c2OCc2ccccc2)ccc1OCc1ccccc1', '>', 100),
  ('CCCC(=O)OCOc1cc(-c2oc3cc(O)cc(O)c3c(=O)c2O)ccc1O', '=', 61.9);

###

assay: Plasma stability (half-life in plasma, 100 μM, 37° C., liquid chromatography); type: in vitro ADME; details: plasma spiked at 100 μM, incubated at 37° C.
metric_name: half-life at 100 μM (min)

INSERT INTO assay_data (molecule, sign_qualifier, measured_number) VALUES
  ('CCCC(=O)OCOc1cc(-c2oc3cc(O)cc(O)c3c(=O)c2O)ccc1O [Compound No. 14]', '<', 3),
  ('O=C(O)CNC(=O)Oc1cc(-c2oc3cc(O)cc(O)c3c(=O)c2O)ccc1O [QC-12 (IV), reference compound]', '=', 43.9),
  ('CC(=O)OCOc1cc(-c2oc3cc(O)cc(O)c3c(=O)c2O)ccc1O [Compound No. 8]', '<', 3),
  ('CC(C)(C)C(=O)OCOc1cc(-c2oc3cc(O)cc(O)c3c(=O)c2O)ccc1O [Compound No. 7]', '=', 6.24);
